# TEST TARGET: furin, P09958;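 note: purified furin at 1:10 enzyme:substrate in 50 mM HEPES pH 7.5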
# Sequence (P09958 whole entry): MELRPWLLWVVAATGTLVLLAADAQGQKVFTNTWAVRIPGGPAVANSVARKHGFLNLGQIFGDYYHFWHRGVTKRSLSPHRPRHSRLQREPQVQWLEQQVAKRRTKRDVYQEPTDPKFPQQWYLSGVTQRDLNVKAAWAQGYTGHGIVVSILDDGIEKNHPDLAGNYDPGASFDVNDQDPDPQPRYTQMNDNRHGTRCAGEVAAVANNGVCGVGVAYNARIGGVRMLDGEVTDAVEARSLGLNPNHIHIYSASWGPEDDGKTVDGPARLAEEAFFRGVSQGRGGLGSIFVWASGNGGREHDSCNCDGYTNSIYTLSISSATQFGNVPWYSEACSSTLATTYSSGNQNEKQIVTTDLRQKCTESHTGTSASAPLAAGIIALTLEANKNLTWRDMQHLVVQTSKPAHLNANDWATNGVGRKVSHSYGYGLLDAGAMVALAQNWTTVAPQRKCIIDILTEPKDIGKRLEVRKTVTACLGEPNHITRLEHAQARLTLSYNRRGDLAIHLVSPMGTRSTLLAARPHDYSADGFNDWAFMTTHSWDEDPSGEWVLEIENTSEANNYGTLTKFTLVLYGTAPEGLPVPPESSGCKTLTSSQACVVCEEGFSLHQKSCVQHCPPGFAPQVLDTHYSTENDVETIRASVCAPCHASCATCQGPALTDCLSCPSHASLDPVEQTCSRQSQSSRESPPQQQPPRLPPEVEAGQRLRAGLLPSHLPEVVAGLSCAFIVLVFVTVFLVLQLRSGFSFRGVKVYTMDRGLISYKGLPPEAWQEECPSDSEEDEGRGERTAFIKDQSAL
# PROTOCOL DETAILS: furin cleavage Z-score vs untreated control; higher = more cleavage, active = 3.5 or more, inactive = 1 or less, 8 variable residues between constant flanks
# ASSAY SETUP: 15 min
The other results are listed elsewhere or left out. No count for the full screen is at hand.
MEASUREMENT KIND: furin cleavage Z-score
Lab note: jot down the number only; don't add units.

q: What measured furin cleavage Z-score goes with CARLRRASWVAGNASASA [FS-3197] ?
a: 1.96

q: Would you kindly repeat that for CASRPCSAHLAGNASASA [HC2493] ?
a: 1.57

q: Record: CAYTPCSGSWAGNASASA [HC1829]
a: -0.615

q: Query CAFDEMEECSAGNASASA [HC1013] next
a: 0.715
